Tested Target: HTR2A (Homo sapiens, UniProt P28223)
Sequence (P28223 whole entry): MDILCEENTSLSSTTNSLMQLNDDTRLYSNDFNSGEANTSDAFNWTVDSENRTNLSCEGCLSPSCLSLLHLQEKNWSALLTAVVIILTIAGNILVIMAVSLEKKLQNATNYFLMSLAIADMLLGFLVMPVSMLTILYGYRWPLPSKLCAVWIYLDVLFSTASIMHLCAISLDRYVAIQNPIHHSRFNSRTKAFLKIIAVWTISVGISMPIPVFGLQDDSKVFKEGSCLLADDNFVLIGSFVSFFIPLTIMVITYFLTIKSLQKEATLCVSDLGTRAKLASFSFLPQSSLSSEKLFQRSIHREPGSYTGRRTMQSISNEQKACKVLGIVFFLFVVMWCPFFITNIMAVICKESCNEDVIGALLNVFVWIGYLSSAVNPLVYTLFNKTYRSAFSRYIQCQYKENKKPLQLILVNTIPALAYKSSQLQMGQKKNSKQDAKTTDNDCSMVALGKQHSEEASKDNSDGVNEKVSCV
Measurement Description: Safety47 Calcium Flux HTR2A
Condition Parameters: Agonist, read-out: RC50 (EC50)
pEC50: −log10 of the molar value.
Assay Readout: pEC50

Give pEC50 for the following molecule: `Cl.c1ccc2c(Nc3ccc4[nH]ccc4c3)nc(-c3ccncc3)nc2c1`
< 5.00

Give pEC50 for the following molecule: `Cl.Fc1cc(Nc2nc(-c3ccncc3)nc3ncccc23)cc2cc[nH]c12`
< 5.00

###

Tested Target: UniProt:P32238
Measurement Description: Safety47 Calcium Flux CCKAR
Condition Parameters: Agonist, read-out: RC50 (EC50)
Assay Readout: EC50

Give EC50 for the following compound: `Cl.c1ccc2c(Nc3ccc4[nH]ccc4c3)nc(-c3ccncc3)nc2c1`
> 10 µM

Give EC50 for the following compound: `Cl.Fc1cc(Nc2nc(-c3ccncc3)nc3ncccc23)cc2cc[nH]c12`
> 10 µM

###

pIC50: −log10 of the molar value.
Parameter 'readout' = pIC50; parameter 'system' = UniProtKB P06213.

Give pIC50 for the following compound: `Cl.c1ccc2c(Nc3ccc4[nH]ccc4c3)nc(-c3ccncc3)nc2c1`
< 5.00

Give pIC50 for the following compound: `Cl.Fc1cc(Nc2nc(-c3ccncc3)nc3ncccc23)cc2cc[nH]c12`
< 5.00

###

Tested Target: CAV1.2 (Homo sapiens)
Construct: purchased Eurofins Panlab (Safety47 Safety Scan, contract panel)
Sequence (Q13936 whole entry): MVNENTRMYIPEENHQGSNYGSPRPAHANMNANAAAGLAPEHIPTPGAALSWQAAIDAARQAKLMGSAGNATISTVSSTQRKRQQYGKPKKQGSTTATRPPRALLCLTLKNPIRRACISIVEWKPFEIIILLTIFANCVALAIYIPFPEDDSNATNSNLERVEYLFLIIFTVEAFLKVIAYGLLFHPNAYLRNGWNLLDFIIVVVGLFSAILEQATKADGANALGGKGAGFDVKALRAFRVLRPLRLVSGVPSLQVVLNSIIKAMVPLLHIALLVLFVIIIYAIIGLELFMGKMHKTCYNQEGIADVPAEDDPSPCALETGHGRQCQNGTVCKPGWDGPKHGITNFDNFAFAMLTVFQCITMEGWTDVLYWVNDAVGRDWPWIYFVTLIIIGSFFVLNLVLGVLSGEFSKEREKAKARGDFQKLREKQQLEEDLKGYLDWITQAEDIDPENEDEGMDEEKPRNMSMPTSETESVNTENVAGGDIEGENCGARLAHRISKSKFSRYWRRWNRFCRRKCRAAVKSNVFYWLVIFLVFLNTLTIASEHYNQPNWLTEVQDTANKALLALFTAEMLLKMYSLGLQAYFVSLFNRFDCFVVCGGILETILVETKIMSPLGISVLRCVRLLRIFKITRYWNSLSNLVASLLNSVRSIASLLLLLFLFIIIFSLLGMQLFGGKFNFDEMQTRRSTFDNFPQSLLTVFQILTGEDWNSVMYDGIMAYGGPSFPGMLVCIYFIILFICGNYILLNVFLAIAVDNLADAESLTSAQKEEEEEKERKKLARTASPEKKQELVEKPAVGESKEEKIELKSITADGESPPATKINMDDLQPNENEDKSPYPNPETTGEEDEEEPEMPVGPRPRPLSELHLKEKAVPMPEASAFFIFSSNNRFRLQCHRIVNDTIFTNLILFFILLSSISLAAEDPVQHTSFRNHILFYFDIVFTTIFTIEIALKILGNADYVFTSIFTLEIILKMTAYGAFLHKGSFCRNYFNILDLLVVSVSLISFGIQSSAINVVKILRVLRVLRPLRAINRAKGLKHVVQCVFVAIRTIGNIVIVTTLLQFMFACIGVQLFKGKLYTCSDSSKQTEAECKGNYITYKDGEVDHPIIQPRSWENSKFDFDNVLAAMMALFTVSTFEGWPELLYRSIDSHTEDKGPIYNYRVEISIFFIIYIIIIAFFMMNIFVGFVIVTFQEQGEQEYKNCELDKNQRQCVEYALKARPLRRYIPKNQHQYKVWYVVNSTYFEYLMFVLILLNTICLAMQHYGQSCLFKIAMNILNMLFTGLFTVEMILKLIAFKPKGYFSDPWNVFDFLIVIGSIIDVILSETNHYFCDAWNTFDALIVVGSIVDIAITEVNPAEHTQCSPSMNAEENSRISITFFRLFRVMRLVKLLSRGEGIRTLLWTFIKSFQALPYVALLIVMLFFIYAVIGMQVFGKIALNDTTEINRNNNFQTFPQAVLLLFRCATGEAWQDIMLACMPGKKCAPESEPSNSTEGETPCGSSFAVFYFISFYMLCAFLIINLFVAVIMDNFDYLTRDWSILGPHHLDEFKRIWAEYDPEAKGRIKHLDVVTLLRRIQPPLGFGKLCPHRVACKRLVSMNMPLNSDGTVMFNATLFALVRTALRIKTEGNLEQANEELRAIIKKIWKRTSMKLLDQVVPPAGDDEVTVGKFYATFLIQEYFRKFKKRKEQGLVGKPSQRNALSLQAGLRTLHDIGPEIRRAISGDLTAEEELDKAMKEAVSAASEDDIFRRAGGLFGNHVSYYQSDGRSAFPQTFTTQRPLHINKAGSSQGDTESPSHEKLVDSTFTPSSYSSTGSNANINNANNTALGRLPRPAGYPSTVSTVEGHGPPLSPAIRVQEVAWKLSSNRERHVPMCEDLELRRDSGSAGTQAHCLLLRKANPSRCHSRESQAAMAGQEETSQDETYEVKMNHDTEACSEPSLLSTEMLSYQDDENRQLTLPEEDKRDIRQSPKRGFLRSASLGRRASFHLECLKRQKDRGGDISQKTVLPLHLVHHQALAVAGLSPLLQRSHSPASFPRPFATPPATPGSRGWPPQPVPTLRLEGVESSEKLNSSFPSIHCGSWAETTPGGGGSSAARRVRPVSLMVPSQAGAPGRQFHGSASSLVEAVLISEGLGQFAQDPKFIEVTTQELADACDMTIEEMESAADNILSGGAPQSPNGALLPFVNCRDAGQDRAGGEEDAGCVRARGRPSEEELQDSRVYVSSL
Sequence (Q08289 whole entry partner): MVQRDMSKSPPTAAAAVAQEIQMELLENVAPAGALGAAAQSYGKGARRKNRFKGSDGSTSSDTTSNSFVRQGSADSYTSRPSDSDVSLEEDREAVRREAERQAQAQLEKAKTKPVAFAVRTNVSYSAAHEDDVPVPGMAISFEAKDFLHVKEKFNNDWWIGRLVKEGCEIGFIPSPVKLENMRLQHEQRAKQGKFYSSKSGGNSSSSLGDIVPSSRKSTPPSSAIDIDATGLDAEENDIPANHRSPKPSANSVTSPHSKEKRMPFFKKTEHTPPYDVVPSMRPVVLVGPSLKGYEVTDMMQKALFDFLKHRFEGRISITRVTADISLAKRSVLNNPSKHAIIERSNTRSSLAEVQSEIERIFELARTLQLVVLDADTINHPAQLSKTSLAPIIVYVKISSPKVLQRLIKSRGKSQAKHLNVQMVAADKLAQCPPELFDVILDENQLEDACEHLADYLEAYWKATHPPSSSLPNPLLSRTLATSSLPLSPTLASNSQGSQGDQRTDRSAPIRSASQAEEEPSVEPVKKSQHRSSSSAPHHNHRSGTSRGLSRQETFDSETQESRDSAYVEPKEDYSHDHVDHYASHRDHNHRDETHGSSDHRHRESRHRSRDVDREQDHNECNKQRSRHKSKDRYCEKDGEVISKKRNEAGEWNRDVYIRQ
Sequence (P54289 25-946 partner limits assumed): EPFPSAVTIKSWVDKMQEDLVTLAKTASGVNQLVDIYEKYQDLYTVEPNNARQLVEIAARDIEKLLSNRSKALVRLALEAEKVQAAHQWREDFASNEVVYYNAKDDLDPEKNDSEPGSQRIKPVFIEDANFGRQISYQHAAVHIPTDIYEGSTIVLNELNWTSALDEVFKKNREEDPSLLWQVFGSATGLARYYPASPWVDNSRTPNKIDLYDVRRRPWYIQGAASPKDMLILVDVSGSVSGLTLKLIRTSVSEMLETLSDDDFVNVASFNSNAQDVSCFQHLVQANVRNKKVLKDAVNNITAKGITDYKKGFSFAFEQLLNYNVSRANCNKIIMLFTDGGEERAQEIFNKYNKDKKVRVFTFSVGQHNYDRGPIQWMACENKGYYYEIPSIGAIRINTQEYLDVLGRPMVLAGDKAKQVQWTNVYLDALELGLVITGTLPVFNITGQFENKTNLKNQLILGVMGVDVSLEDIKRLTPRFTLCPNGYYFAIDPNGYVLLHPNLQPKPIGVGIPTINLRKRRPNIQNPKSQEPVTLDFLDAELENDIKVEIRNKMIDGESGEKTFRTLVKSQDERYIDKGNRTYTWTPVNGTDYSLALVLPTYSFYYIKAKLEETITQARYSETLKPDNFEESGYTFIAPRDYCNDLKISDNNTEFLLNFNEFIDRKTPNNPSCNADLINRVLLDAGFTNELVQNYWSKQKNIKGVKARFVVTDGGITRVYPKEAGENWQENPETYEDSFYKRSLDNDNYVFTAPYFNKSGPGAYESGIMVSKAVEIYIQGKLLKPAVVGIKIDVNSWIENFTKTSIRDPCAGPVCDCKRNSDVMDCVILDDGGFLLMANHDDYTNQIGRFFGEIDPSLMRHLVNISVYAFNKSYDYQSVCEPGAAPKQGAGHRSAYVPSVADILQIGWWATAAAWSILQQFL
Sequence (P54289 947-1103 partner limits assumed): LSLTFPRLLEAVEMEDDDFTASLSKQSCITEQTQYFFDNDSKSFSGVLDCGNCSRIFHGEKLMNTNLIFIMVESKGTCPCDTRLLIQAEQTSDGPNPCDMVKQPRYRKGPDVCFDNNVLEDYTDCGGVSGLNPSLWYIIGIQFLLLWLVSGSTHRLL
Measurement Description: Safety47 Ion Channel CAV1.2
Assay type: cell-based
Condition Parameters: Blocker, read-out: Max Response
Assay Readout: Emax (%)
Enter your answer as a number in %; do not include the unit.

Provide measured Emax on CAV1.2 (Homo sapiens) for Cl.c1ccc2c(Nc3ccc4[nH]ccc4c3)nc(-c3ccncc3)nc2c1 [BC18630] please.
0

Provide measured Emax on CAV1.2 (Homo sapiens) for Cl.Fc1cc(Nc2nc(-c3ccncc3)nc3ncccc23)cc2cc[nH]c12 [BC18813] please.
0

###

Tested Target: ADRB1 (Homo sapiens, UniProt P08588)
Measurement Description: Safety47 cAMP ADRB1
Condition Parameters: Agonist, read-out: RC50 (EC50)
Assay Readout: EC50

Give EC50 for the following compound: `Cl.Fc1cc(Nc2nc(-c3ccncc3)nc3ncccc23)cc2cc[nH]c12`
> 10 µM

Give EC50 for the following compound: `Cl.c1ccc2c(Nc3ccc4[nH]ccc4c3)nc(-c3ccncc3)nc2c1`
> 10 µM

###

Exercise: for every item that follows, state its recorded pIC50.
Tested Target: HTR2A (Homo sapiens, UniProt P28223)
Measurement Description: Safety47 Calcium Flux HTR2A
Condition Parameters: Antagonist, read-out: RC50 (IC50)
pIC50: −log10 of the molar value.

Give pIC50 for the following compound: `Cl.Fc1cc(Nc2nc(-c3ccncc3)nc3ncccc23)cc2cc[nH]c12`
< 5.00

Give pIC50 for the following compound: `Cl.c1ccc2c(Nc3ccc4[nH]ccc4c3)nc(-c3ccncc3)nc2c1`
< 5.00

###

Tested Target: DRD2S (Homo sapiens, UniProt P14416)
Sequence (P14416 1-414 isoform P14416-2): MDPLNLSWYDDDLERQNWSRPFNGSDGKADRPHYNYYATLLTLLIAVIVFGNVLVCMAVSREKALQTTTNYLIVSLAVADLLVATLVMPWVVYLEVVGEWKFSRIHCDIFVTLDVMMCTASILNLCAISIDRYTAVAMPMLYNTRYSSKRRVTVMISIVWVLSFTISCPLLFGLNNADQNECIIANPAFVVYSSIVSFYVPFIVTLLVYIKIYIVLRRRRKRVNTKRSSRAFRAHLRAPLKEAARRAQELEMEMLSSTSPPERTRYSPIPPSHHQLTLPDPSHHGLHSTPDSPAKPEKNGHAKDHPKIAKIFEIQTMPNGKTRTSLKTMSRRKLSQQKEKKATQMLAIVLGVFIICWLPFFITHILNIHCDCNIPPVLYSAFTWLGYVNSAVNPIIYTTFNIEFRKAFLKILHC
Measurement Description: Safety47 cAMP DRD2S
Condition Parameters: Antagonist, read-out: RC50 (IC50)
Assay Readout: IC50

Give IC50 for the following molecule: Cl.Fc1cc(Nc2nc(-c3ccncc3)nc3ncccc23)cc2cc[nH]c12 [BC18813]
> 10 µM

Give IC50 for the following molecule: Cl.c1ccc2c(Nc3ccc4[nH]ccc4c3)nc(-c3ccncc3)nc2c1 [BC18630]
> 10 µM
